Target: canine FcRn/B2M protein complex (canine FcRn ECD with C-terminal poly-His tag and canine Beta-2-Microglobulin) (canine)
Assay: SPR Biacore 8K, pH 6.0, 25 C; Fc captured by SASA tag on BSA chip, FcRn/B2M 400 nM as analyte
Reported koff values for a set of binders
Entry rule: numbers only, all in s⁻¹.

{"Binder": "YTE variant canine IgG-B Fc polypeptide (Leu24Tyr, Ala26Thr, Thr28Glu) (protein, not shown: small tags and cut ends) CPAPEMLGGPSVFIFPPKPKDTLYITREPEVTCVVVDLDPEDPEVQISWFVDGKQMQTAKTQPREEQFNGTYRVVSVLPIGHQDWLKGKQFTCKVNNKALPSPIERTISKARGQAHQPSVYVLPPSREELSKNTVSLTCLIKDFFPPDIDVEWQSNGQQEPESKYRTTPPQLDEDGSYFLYSKLSVDKSRWQRGDTFICAVMHEALHNHYTQESLSHSPGK", "Quantity Unit": "s⁻¹", "koff": 0.0205}
{"Binder": "variant canine IgG-B Fc polypeptide Y0Y (Leu24Tyr, Asn208Tyr) (protein, not shown: small tags and cut ends) CPAPEMLGGPSVFIFPPKPKDTLYIARTPEVTCVVVDLDPEDPEVQISWFVDGKQMQTAKTQPREEQFNGTYRVVSVLPIGHQDWLKGKQFTCKVNNKALPSPIERTISKARGQAHQPSVYVLPPSREELSKNTVSLTCLIKDFFPPDIDVEWQSNGQQEPESKYRTTPPQLDEDGSYFLYSKLSVDKSRWQRGDTFICAVMHEALHYHYTQESLSHSPGK", "Quantity Unit": "s⁻¹", "koff": 0.00014}

Now for a further binder.
-- ask Data request, read-out koff, for variant canine IgG-B Fc polypeptide 0YY (Gln83Tyr, Asn208Tyr) (protein, not shown: small tags and cut ends) CPAPEMLGGPSVFIFPPKPKDTLLIARTPEVTCVVVDLDPEDPEVQISWFVDGKQMQTAKTQPREEQFNGTYRVVSVLPIGHYDWLKGKQFTCKVNNKALPSPIERTISKARGQAHQPSVYVLPPSREELSKNTVSLTCLIKDFFPPDIDVEWQSNGQQEPESKYRTTPPQLDEDGSYFLYSKLSVDKSRWQRGDTFICAVMHEALHYHYTQESLSHSPGK
-- reply 0.00086
